pIC50: −log10 of the molar value.
Values of pIC50 reported for Jurkat cells expressing CXCR4 (Homo sapiens (Human)) appear below.

-- ask State its pIC50 for this compound: `CN1CCN(c2cccc3nc([C@H]4CCC[C@@H](c5ncccc5C5CC5)N4)c(Cl)n23)CC1`
-- reply 7.00 to 11.00

-- ask State its pIC50 for this compound: Cc1cccnc1[C@H]1CCC[C@@H](c2nc3ccccn3c2CCCN2CCN(C)CC2)N1C (stereo in doubt)
-- reply 7.00 to 11.00

-- ask Determine from records and report pIC50 for `CCOCc1c([C@H]2CCC[C@@H](c3ncccc3C)N2C)nc2cccc(N3CCN(CC)CC3)n12`
-- reply 7.00 to 11.00

-- ask Quickly give me recorded pIC50 for Cc1cccnc1[C@H]1CCC[C@@H](c2nc3ccccn3c2CCCN)N1C (stereo in doubt)
-- reply 7.00 to 11.00

-- ask Report pIC50, nothing else, for this compound: `Cc1cccnc1[C@@H]1CCC[C@H](c2nc3cccc(N4C5CCC4CN(C)C5)n3c2Cl)N1C`
-- reply 7.00 to 11.00

-- ask Dear colleague, please send me the reported pIC50 for `Clc1cccnc1[C@@H]1CCC[C@H](c2cn3c(N4CCNC5(CC5)C4)cccc3n2)N1` when you can.
-- reply 6.00 to 7.00

-- ask In one line, give reported pIC50 of the entry `Cc1cccnc1[C@@H]1CCC[C@H](c2nc3ccccn3c2COC2CCN(C)CC2)N1C` .
-- reply 6.00 to 7.00

-- ask Fill in pIC50 for record `Cc1cccnc1[C@@H]1CCC[C@H](c2nc3cccc(N4CCN(C)CC4)n3c2Cl)N1`
-- reply 7.00 to 11.00

-- ask Give the reported pIC50 for this compound. `Cc1cccnc1[C@@H]1CCC[C@H](c2cn3c(N4CC5CCC(C4)N5C)cccc3n2)N1C`
-- reply 7.00 to 11.00

-- ask Entry `COc1cccnc1[C@@H]1CCC[C@H](c2cn3c(N4CCN(C)CC4)cccc3n2)N1` needs its pIC50 filled in; supply it.
-- reply 7.00 to 11.00

-- ask Supply pIC50 value. Item: `CN1CC2CCC(C1)N2c1cccc2nc([C@H]3CCC[C@@H](c4ncccc4Cl)N3)cn12`
-- reply 7.00 to 11.00

-- ask Provide one value: measured pIC50 of `Cc1cccnc1[C@@H]1CCC[C@H](c2nc3ccccn3c2[C@H](O)C2CCN(C)CC2)N1C`
-- reply 7.00 to 11.00

-- ask Quote pIC50 reported for CN1CCN(c2cccc3nc([C@@H]4CCC[C@H](c5ncccc5Cl)N4)cn23)CC1 (single isomer, unassigned) please.
-- reply 7.00 to 11.00

-- ask Note pIC50 for the compound shown: `Cc1cccnc1[C@@H]1CCC[C@H](c2nc3ccccn3c2[C@@H](O)C2CCN(C)CC2)N1C`
-- reply 7.00 to 11.00

-- ask Read the entry `Cc1cccnc1[C@@H]1CCC[C@H](c2cn3c(N4CC5CCC(C4)N5)cccc3n2)N1C` and write its reported pIC50.
-- reply 7.00 to 11.00

----------
Give measured AUC(0-t) for each item. Keep answers brief.
ASSAY EXPLANATION: Rat pharmacokinetics and brain penetration (IV and PO)
Format: in vivo
EXPERIMENTAL CONDITIONS: male, SD; Rat plasma, 3 mg/kg IV; 10 mg/kg PO; read-out: AUClast (p)
Reply numerically in ng·h/mL, unit not repeated.

-- ask Answer with the recorded AUC(0-t) for the compound listed here: `Cc1cccnc1[C@@H]1CCC[C@H](c2nc3cccc(N4CCN(C)CC4)n3c2Cl)N1`
-- reply 4280

-- ask Return reported AUC(0-t). Input compound: CN1CCN(c2cccc3nc([C@H]4CCC[C@@H](c5ncccc5Cl)N4)cn23)CC1 (racemic) [Compound I-149]
-- reply 457

-- ask Specify reported AUC(0-t) for the compound shown: CN1CCN(c2cccc3nc([C@H]4CCC[C@@H](c5ncccc5Cl)N4)cn23)CC1 (single isomer, unassigned) [Compound I-188]
-- reply 791

-- ask Using known records, supply AUC(0-t) for CN1CCN(c2cccc3nc([C@@H]4CCC[C@H](c5ncccc5Cl)N4)cn23)CC1 (single isomer, unassigned)
-- reply 570

----------
ASSAY EXPLANATION: Mouse brain uptake assay, 0-24 h, 4 time points
Format: in vivo
EXPERIMENTAL CONDITIONS: male, CD1, plasma, Mouse, 3 mg/kg IV, 4 time points
Consider the following molecules; for each one, report its clearance.
State just the number; it will be interpreted in mL/min/kg.

-- ask Recall and state the measured clearance for Cc1c([C@@H]2CCC[C@H](c3ncccc3Cl)N2)nc2cccc(N3CCN(C)CC3)n12 (stereo in doubt) [Compound I-193] .
-- reply 22

-- ask Fill in clearance for record Cc1cccnc1[C@@H]1CCC[C@H](c2cn3c(-c4cccnc4)cccc3n2)N1C [Compound I-6]
-- reply 48.3

-- ask Quote clearance reported for CCOCc1c([C@H]2CCC[C@@H](c3ncccc3Cl)N2C)nc2cccc(N3CCN(C)CC3)n12 [Compound I-117] please.
-- reply 33.5

-- ask Specify reported clearance for the molecule shown: CN1CCN(c2cccc3nc([C@H]4CCC[C@@H](c5ncccc5Cl)N4C)c(Cl)n23)CC1 [Compound I-115]
-- reply 35.3

-- ask Please indicate clearance recorded for Cc1cccnc1[C@@H]1CCC[C@H](c2cn3c(N4CCN(C)CC4)cccc3n2)N1 [Compound I-187]
-- reply 28.7

-- ask Read off the recorded clearance for Cc1cccnc1[C@@H]1CCC[C@H](c2nc3cccc(N4CCN(C)CC4)n3c2Cl)N1 [Compound I-146]
-- reply 7.22

----------
ASSAY EXPLANATION: MTD and pharmacokinetics and brain penetration after PO administration
Assay type: in vivo, Male C57BL/6 Mice
EXPERIMENTAL CONDITIONS: male, C57BL/6; Mouse plasma, single administration, D1-50 mg/kg PO; read-out: AUClast (p)
METRIC: AUC(0-t)

-- ask Tell us which AUC(0-t) value is on record for CN1CCN(c2cccc3nc([C@H]4CCC[C@@H](c5ncccc5Cl)N4)cn23)CC1 (single isomer, unassigned) [Compound I-188]
-- reply 23500 ng·h/mL

----------
ASSAY EXPLANATION: in vitro
EXPERIMENTAL CONDITIONS: human, Caco-2, pH 7.4
METRIC: Papp B→A at 90 min, 10 μM

-- ask Tell me measured Papp B→A at 90 min, 10 μM for CN1CCN(c2cccc3nc([C@H]4CCC[C@@H](c5ncccc5Cl)N4)cn23)CC1 (single isomer, unassigned) [Compound I-188] please.
-- reply 10 to 30 ×10⁻⁶ cm/s

-- ask For the compound CCN1[C@@H](c2nc3cccc(N4CCN(C)CC4)n3c2Br)CCC[C@H]1c1ncccc1C [Compound I-46] , give its measured Papp B→A at 90 min, 10 μM value.
-- reply 0.1 to 10 ×10⁻⁶ cm/s

-- ask Quote Papp B→A at 90 min, 10 μM reported for Cc1cccnc1[C@@H]1CCC[C@H](c2cn3c(N4CC5CCC(C4)N5C)cccc3n2)N1C [Compound I-68] please.
-- reply 10 to 30 ×10⁻⁶ cm/s

-- ask Give the value of Papp B→A at 90 min, 10 μM reported for the following: Cc1cccnc1[C@@H]1CCC[C@H](c2cn3c(N4CCN(C)CC4)cccc3n2)N1CCO [Compound I-87]
-- reply 10 to 30 ×10⁻⁶ cm/s

----------
ASSAY EXPLANATION: in vitro
EXPERIMENTAL CONDITIONS: human, Caco-2, pH 7.4
METRIC: Papp at 90 min, 10 μM

-- ask # return recorded Papp at 90 min, 10 μM for entry COCCc1ccc(OCC(O)CNC(C)C)cc1 (stereo not shown) [Metoprolol, reference compound]
-- reply > 10 ×10⁻⁶ cm/s

----------
ASSAY EXPLANATION: in vitro
EXPERIMENTAL CONDITIONS: human, Caco-2, pH 7.4
Please provide measured Papp B→A at 90 min, 10 μM for the entries that follow.

-- ask Please report Papp B→A at 90 min, 10 μM for the following molecule: `Cc1cccnc1[C@@H]1CCC[C@H](c2cn3c(N4CCNC5(CC5)C4)cccc3n2)N1C`
-- reply 10 to 30 ×10⁻⁶ cm/s

-- ask Return reported Papp B→A at 90 min, 10 μM. Input molecule: `CCN1[C@@H](c2cn3c(N4CCN(C(C)C)CC4)cccc3n2)CCC[C@H]1c1ncccc1C`
-- reply 10 to 30 ×10⁻⁶ cm/s

-- ask # return recorded Papp B→A at 90 min, 10 μM for entry `CN(C)C1CCN(c2cccc3nc([C@H]4CCC[C@@H](c5ncccc5Cl)N4C)c(Cl)n23)CC1`
-- reply 0.1 to 10 ×10⁻⁶ cm/s

-- ask Tell me Papp B→A at 90 min, 10 μM reported for `CCN1CCN(c2cccc3nc([C@H]4CCC[C@@H](c5ncccc5Cl)N4C)cn23)CC1`
-- reply 10 to 30 ×10⁻⁶ cm/s
